target: GlunN1/GluN2A glutamate receptors (Homo sapiens (Human), UniProt Q05586+Q12879); assay: Whole-cell patch clamp of mammalian cells (Ionworks Barracuda), positive allosteric modulation, GluN1/GluN2A; assay type: cell-based; settings: HEK293 cells; co-application with EC20 L-glutamate and 30 μM glycine; 8-point concentration-response; read-out: Avg EC50 2A
Sequence (Q12879 23-1464, other chains not shown): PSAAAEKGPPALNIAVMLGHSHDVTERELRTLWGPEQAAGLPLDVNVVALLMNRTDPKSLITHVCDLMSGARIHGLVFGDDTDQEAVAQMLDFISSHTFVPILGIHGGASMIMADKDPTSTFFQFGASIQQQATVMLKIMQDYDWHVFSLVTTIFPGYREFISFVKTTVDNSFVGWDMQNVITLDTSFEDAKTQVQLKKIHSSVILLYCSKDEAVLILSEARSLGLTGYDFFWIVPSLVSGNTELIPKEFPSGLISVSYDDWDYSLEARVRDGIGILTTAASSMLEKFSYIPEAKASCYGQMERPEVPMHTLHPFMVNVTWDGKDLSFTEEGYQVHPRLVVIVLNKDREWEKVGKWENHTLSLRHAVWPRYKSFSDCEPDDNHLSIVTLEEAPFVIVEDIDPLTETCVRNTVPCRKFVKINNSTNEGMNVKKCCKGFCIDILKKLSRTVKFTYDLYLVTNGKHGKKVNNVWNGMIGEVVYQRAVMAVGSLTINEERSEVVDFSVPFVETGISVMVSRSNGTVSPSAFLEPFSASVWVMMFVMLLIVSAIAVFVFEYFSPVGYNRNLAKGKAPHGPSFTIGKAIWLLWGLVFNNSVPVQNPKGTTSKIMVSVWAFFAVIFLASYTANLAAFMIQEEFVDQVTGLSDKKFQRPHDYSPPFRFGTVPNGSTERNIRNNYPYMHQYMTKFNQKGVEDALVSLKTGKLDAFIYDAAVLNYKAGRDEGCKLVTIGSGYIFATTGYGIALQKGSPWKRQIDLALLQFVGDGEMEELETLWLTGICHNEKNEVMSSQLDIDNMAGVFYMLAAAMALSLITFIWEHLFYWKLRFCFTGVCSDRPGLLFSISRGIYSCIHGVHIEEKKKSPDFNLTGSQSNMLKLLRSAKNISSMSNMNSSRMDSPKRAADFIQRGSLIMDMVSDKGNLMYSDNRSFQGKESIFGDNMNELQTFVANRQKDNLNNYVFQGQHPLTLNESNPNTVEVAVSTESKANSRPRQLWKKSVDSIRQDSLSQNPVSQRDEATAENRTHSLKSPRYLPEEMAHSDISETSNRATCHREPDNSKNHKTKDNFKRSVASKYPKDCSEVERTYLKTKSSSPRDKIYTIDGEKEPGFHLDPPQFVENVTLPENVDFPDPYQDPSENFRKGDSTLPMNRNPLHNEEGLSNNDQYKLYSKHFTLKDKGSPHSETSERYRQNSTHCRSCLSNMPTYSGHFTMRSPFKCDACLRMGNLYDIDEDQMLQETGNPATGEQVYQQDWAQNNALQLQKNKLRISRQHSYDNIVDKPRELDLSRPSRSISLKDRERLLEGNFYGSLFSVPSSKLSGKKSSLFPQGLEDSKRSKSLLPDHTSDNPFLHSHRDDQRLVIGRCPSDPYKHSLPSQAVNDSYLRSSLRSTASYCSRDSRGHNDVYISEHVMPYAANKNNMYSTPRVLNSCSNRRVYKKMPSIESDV
Reported EC50 values follow for various molecules
Write down the numeric answer in µM and omit the unit.

smiles_data=CC[C@]1(O)CC[C@H]2C(=CC[C@@H]3[C@@H]2CC[C@]2(C)[C@@H]([C@H](C)CCC[C@](C)(O)C(F)(F)F)CC[C@@H]32)C1 measured_number=0.287

// next item, EC50 requested
Request the reported EC50 associated with "C[C@H](CCCC(C)(C)O)[C@H]1CC[C@H]2[C@@H]3CC[C@H]4C[C@](O)(C(F)(F)F)CC[C@]4(C)[C@H]3CC[C@]12C" 0.102

Every entry's value here was drawn from patent US11149054B2.
